assay: Blood pharmacokinetics of TPPU and its metabolites after single oral dose in rats; assay type: in vivo; settings: male, Sprague Dawley, rat, whole blood, po, 10 mg/kg, oral gavage 10 mg/kg, n = 4, read-out: T1/2 (half-life) (converted)
ENDPOINT NAME: half-life (h)
Field: numeric (h). Do not append units.

These solved cases illustrate the format of a correct answer.
O=C(Nc1ccc(OC(F)(F)F)cc1)NC1CCNCC1	14
O=C(O)CC(=O)N1CCC(NC(=O)Nc2ccc(OC(F)(F)F)cc2)CC1	17

Read the next record carefully.
half-life reported for this compound O=C(Nc1ccc(OC(F)(F)F)cc1)NC1CCN(C(=O)CCO)CC1 : 9.7
